Biological target: T1, His-tagged recombinant human LRP10 protein, LRP10-516H (human, UniProt Q7Z4F1 17-440)
T1 construct: The ELISA protocol calls the coated protein 'LR10'; also called target protein LR10; target antigen; not shown: His tag
T1 sequence (looked up): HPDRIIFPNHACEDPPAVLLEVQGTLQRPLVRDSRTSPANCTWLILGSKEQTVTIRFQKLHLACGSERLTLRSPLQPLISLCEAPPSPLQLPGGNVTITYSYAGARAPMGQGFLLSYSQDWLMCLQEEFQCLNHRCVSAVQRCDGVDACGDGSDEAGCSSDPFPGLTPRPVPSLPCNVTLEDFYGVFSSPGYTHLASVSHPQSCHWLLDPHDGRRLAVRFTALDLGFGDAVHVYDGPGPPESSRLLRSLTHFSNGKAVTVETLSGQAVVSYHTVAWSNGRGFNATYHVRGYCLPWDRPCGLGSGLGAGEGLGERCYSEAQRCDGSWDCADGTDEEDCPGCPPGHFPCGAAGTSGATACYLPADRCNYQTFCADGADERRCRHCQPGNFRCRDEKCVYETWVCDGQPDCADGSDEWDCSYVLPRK
Assay: ELISA, coated LRP10, serial dilution of antibody
recorded.metric: EC50 (µg/mL)
Numbers only, in µg/mL.

Report EC50 for Clone 2 (AB2) (antibody, human IgG1, V domains shown, Expressed as a full antibody in 293F cells, protein A purified; also called AB2 (L2 + H1); AB2: L2 + H1) VH: EVQLLESGGGLVQPGGSLRLSCAASGFTFSSQAMSWVRQAPGKGLEWVSSIPPGGPNTKYADSVKGRFTISRDNSKNTLYLQMNSLRAEDTAVYYCAKSYPSFDYWGQGTLVTVSS VL: DIQMTQSPSSLSASVGDRVTITCRASQSISSYLNWYQQKPGKAPKLLIYAASPLQSGVPSRFSGSGSGTDFTLTISSLQPEDFATYYCQQVARTPNTFGQGTKVEIK
0.0148
